- Method Summary: The relative permeability was measured from transport studies using polycarbonate membranes and Dulbecco's modified eagle medium with 10% fetal bovine serum.
- Format: ADME
Measurement Type: Relative permiability

structure_smiles_string=COc1cc(C(=O)N2CC[C@](CCN3CCC(C(N)=O)(c4ccccc4)CC3)(c3ccc(Cl)c(Cl)c3)C2)cc(OC)c1OC.Cl test_value=1
structure_smiles_string=COc1cc(C(=O)N2CC[C@](CCN3CCC(C(=O)N4CCN(C)CC4)(c4cccnc4)CC3)(c3ccc(Cl)c(Cl)c3)C2)cc(OC)c1OC.Cl test_value=1.2
structure_smiles_string=COc1cc(C(=O)N2CC[C@](CCN3CCC(C(N)=O)(c4cccnc4)CC3)(c3ccc(Cl)c(Cl)c3)C2)cc(OC)c1OC.Cl test_value=0.1
structure_smiles_string=COc1cc(C(=O)N2CC[C@](CCN3CCC(C(=O)N4CCOCC4)(c4ccccc4)CC3)(c3ccc(Cl)c(Cl)c3)C2)cc(OC)c1OC.Cl test_value=3.7
structure_smiles_string=COc1cc(C(=O)N2CC[C@](CCN3CCC(C(N)=O)(c4ccncc4)CC3)(c3ccc(Cl)c(Cl)c3)C2)cc(OC)c1OC.Cl test_value=0.1
structure_smiles_string=COc1cc(C(=O)N2CC[C@](CCN3CCC(C(=O)N4CCN(C)CC4)(c4ccccc4)CC3)(c3ccc(Cl)c(Cl)c3)C2)cc(OC)c1OC.Cl test_value=2.1
